# target or system: HDAC4 (Homo sapiens, UniProt P56524)
# Sequence (P56524 whole entry, canonical isoform): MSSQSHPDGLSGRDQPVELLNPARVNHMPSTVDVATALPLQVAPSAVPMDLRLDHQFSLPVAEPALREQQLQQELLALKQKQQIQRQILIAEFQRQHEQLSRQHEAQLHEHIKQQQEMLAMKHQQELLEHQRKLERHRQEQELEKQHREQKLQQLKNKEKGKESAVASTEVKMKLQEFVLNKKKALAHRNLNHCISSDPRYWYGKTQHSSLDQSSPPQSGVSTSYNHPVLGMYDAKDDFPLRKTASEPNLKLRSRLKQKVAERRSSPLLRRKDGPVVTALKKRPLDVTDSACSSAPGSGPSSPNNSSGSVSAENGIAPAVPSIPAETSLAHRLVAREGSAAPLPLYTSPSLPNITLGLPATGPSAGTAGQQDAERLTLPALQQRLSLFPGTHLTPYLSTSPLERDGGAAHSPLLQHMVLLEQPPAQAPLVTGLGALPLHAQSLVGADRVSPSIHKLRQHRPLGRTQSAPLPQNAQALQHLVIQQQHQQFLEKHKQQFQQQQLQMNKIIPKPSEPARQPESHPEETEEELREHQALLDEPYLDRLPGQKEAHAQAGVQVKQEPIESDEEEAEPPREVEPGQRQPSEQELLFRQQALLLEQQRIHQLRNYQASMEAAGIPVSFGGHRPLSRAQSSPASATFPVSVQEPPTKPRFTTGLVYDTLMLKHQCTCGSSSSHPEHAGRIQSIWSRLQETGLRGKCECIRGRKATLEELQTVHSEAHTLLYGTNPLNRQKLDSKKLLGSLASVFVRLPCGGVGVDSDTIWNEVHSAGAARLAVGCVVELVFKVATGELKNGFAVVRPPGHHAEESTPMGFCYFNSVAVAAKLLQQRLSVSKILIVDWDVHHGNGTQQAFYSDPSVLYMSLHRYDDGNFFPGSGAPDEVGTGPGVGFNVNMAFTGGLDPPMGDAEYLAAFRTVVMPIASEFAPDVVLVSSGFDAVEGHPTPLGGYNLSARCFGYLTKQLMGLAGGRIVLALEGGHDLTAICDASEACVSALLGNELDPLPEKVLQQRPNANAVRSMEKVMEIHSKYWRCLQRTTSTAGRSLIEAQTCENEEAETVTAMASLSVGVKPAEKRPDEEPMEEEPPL
# procedure text: HDAC4 isoform selectivity assay
# Assay type: biochemical
# measurement setup: Table 2 isoform selectivity; read-out: HDAC Inhibition (IC50 uM) isoform 4
# From the text: The HDAC1, 2, 4, 5, 6, 7, 8, 9, 10, and 11 assays used isolated recombinant human protein; HDAC3/NcoR2 complex was used for the HDAC3 assay. Substrate for HDAC1, 2, 3, 6, 10, and 11 assays is a fluorogenic peptide from p53 residues 379-382 (RHKKAc); substrate for HDAC8 is fluorogenic diacyl peptide based on residues 379-382 of p53 (RHKAcKAc). Acetyl-Lys(trifluoroacetyl)-AMC substrate was used for HDAC4, 5, 7, and 9 assays. […]
Examples of compounds with documented IC50 follow.
measured parameter: IC50 (µM)

[[record]]
smiles_notation = "Cn1c(NCc2ccc(C(=O)NO)cc2)nc2ccccc21"
measured_parameter = "IC50"
unit_abbreviation = "µM"
assay_result = 2.42

[[record]]
smiles_notation = "O=C(NO)c1ccc(CN2CCc3ccc(F)cc32)cc1"
measured_parameter = "IC50"
unit_abbreviation = "µM"
assay_result = 2.41

[[record]]
smiles_notation = "O=C(NO)c1ccc(CN2CCc3ccc(Cl)cc32)cc1"
measured_parameter = "IC50"
unit_abbreviation = "µM"
assay_result = 3.48


----------
# procedure text: Blood brain barrier test: tissue concentration after iv injection
# Format: in vivo, Mouse
# measurement setup: plasma; Mouse 1, iv 7.5 mg/kg in DMSO, after 20 minutes; read-out: Concentration, Plasma
measured parameter: concentration at 20 min (ng/g)

[[record]]
compound = "O=C(NO)c1ccc(CN2CCc3ccc(Cl)cc32)cc1 [II-ING-6]"
unit_abbreviation = "ng/g"
assay_result = 256


----------
Examples of compounds with documented IC50 follow.
# target or system: HDAC9 (Homo sapiens, UniProt Q9UKV0)
# Sequence (Q9UKV0 whole entry, canonical isoform): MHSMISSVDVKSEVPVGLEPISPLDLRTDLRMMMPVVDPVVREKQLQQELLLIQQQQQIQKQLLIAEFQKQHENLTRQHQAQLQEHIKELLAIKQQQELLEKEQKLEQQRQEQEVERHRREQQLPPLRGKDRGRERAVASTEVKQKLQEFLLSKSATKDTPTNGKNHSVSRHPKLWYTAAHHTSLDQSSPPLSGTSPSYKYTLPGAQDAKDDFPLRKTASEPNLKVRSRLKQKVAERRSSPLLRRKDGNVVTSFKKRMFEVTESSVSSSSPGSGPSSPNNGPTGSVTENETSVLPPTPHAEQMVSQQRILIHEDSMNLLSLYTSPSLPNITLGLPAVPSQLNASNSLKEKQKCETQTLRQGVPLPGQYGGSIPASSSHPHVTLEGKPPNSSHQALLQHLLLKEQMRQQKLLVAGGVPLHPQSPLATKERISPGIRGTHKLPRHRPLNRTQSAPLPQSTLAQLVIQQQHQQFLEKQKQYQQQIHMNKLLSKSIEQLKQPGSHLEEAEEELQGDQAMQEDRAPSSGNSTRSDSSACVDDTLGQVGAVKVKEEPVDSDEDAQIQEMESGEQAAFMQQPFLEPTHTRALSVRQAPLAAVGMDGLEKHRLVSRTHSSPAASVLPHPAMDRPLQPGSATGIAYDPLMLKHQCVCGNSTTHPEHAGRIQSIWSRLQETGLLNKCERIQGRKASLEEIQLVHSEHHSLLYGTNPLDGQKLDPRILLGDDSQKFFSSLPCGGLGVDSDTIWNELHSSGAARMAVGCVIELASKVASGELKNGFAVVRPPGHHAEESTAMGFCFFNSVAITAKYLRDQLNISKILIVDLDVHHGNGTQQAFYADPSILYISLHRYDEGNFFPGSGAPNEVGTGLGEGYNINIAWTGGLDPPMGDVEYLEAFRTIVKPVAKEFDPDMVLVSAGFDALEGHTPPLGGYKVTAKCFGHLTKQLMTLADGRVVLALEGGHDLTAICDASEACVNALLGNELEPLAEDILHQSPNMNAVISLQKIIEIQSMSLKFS
# procedure text: HDAC9 isoform selectivity assay
# Type: biochemical
# measurement setup: Table 2 isoform selectivity; read-out: HDAC Inhibition (IC50 uM) isoform 9
measured parameter: IC50 (µM)

[[record]]
compound = "Cn1c(NCc2ccc(C(=O)NO)cc2)nc2ccccc21 [II-ING-13]"
assay_result = 1.1

[[record]]
compound = "O=C(NO)c1ccc(CN2CCc3ccc(Cl)cc32)cc1 [II-ING-6]"
assay_result = 2.06

[[record]]
compound = "O=C(NO)c1ccc(CN2CCc3ccc(F)cc32)cc1 [II-ING-41]"
assay_result = 1


----------
# target or system: Human HDAC6 (Homo sapiens, UniProt Q9UBN7)
# Construct: Full length with N-terminal GST tag, MW=159 kDa; GST (N); host or cells: Sf9 insect cells (baculovirus)
# Sequence (Q9UBN7 whole entry): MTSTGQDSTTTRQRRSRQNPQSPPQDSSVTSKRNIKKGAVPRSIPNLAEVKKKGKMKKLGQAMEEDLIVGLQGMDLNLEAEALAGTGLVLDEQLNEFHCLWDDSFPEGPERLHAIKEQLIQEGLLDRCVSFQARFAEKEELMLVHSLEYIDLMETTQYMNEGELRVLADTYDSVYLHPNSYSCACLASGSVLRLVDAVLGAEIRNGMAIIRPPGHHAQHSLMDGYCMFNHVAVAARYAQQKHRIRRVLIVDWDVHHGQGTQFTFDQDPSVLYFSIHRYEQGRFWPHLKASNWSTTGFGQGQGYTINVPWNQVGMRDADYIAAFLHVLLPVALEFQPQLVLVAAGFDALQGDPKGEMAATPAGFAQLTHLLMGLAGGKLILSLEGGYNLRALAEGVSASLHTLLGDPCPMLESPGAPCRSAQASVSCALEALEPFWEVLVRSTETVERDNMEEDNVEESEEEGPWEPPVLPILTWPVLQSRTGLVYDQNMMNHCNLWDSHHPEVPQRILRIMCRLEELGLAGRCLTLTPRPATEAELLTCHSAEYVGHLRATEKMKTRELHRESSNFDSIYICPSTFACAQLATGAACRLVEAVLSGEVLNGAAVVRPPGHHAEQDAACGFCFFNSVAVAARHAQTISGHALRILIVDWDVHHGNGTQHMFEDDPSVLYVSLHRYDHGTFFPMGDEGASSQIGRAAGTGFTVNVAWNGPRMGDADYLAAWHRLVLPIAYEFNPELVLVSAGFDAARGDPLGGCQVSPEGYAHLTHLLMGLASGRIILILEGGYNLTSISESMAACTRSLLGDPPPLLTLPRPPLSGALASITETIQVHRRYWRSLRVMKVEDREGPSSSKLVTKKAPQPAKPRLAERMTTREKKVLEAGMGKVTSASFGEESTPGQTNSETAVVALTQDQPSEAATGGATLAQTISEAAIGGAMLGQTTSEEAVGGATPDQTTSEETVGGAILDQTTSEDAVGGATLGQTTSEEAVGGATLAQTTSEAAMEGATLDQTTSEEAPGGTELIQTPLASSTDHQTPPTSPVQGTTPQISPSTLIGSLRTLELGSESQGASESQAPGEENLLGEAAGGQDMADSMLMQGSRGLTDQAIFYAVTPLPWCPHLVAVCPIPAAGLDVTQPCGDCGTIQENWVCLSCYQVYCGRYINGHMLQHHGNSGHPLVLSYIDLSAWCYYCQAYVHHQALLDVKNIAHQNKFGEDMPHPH
# procedure text: HDAC6 inhibition assay (fluorogenic p53 peptide substrate)
# Format: biochemical
# measurement setup: Table 2 isoform selectivity; read-out: HDAC Inhibition (IC50 uM) isoform 6
# Text: The HDAC1, 2, 4, 5, 6, 7, 8, 9, 10, and 11 assays used isolated recombinant human protein; HDAC3/NcoR2 complex was used for the HDAC3 assay. […] All IC50 values are automatically calculated using the GraphPad Prism version 5 and Equation of Sigmoidal dose-response (variable slope): Y=Bottom+(Top−Bottom)/(1+10^((Log EC50−X)*HillSlope)), where X is the logarithm of concentration, Y is the response, Y starts at Bottom and goes to Top with a sigmoid shape. […]
measured parameter: IC50 (µM)

[[record]]
smiles_notation = "Cn1c(NCc2ccc(C(=O)NO)cc2)nc2ccccc21"
unit_abbreviation = "µM"
assay_result = 0.009

[[record]]
smiles_notation = "O=C(NO)c1ccc(CN2CCc3ccc(F)cc32)cc1"
unit_abbreviation = "µM"
assay_result = 0.004

[[record]]
smiles_notation = "O=C(NO)c1ccc(CN2CCc3ccc(Cl)cc32)cc1"
unit_abbreviation = "µM"
assay_result = 0.009

